Consider the following molecules and their measured IC50 readings.
Molecular target: HPK1 (Homo sapiens, UniProt Q92918)
Construct: purchased Invitrogen
Sequence (Q92918 whole entry): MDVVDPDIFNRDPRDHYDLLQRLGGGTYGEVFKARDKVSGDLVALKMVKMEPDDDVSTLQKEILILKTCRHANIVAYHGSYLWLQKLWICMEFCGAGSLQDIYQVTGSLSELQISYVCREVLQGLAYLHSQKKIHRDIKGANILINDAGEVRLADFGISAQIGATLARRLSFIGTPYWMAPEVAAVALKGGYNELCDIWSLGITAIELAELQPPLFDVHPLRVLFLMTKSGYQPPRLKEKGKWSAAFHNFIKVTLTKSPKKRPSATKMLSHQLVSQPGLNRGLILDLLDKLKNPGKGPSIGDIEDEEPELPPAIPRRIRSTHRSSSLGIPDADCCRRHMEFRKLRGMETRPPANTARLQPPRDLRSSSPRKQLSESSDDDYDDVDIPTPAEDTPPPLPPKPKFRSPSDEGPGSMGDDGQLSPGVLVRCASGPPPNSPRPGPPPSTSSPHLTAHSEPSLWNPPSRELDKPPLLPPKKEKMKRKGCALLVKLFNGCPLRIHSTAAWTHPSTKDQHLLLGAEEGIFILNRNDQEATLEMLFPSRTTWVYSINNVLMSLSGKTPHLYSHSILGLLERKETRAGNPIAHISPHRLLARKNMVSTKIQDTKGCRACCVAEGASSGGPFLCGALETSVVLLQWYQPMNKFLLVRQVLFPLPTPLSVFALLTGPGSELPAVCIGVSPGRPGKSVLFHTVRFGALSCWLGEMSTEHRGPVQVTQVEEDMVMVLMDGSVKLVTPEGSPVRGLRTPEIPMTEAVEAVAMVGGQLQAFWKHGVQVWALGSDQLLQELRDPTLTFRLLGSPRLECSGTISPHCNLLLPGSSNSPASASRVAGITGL
Assay: HPK1 biochemical enzyme assay (microfluidic mobility shift assay)
Details: 1000 uM (1 mM) ATP; Caliper mobility shift; 1.5 nM HPK1; 30 min preincubation; read-out: HPK1 1000UMATP caliper IC50

MOLECULE	IC50
COc1cc(-c2cc(Nc3cccc(N4CCNCC4)n3)c3c(=O)[nH]ccc3n2)c(F)cc1C(=O)N1CCCCC1 [I-234]	≤ 100 nM
CS(=O)(=O)c1ccc(Nc2cc(-c3c(F)cccc3F)nc3cc[nH]c(=O)c23)nc1 [I-18]	> 1000 nM
CCNC(=O)c1ccc(Nc2cc(-c3c(F)cccc3F)nc3nc[nH]c(=O)c23)cc1 [I-14]	≤ 100 nM
CN1CCN(c2ccc(Nc3cc(-c4cnc5c(c4)CC(=O)N5)nc4cc[nH]c(=O)c34)nc2)CC1 [I-227]	≤ 100 nM
COc1cc(-c2cc(Nc3ccc(N4CCC(O)CC4)cn3)c3c(=O)[nH]cc(C)c3n2)c(F)cc1C(=O)N1CCCCC1 [I-163]	> 1000 nM
CC(=O)Nc1ccc(F)c(-c2cc(Nc3ccc(N4CCC(O)CC4)cn3)c3c(=O)[nH]ccc3n2)c1 [I-76]	100 to 1000 nM
O=c1[nH]ccc2nc(-c3ccc(CN4CCCCC4)cc3F)cc(Nc3ccc(N4CCC(O)CC4)cn3)c12 [I-127]	100 to 1000 nM
O=c1[nH]ccc2nc(-c3cccc(CN4CCCCC4)c3F)cc(Nc3ccc(N4CCC(O)CC4)cn3)c12 [I-183]	≤ 100 nM
CN(C)Cc1ccc(-c2cc(Nc3ccc(N4CCC(O)CC4)cn3)c3c(=O)[nH]ccc3n2)c(F)c1 [I-74]	≤ 100 nM
COc1cc(-c2cc(Nc3ccc(N4CCC(O)CC4)cn3)c3c(=O)[nH]ccc3n2)c(F)cc1C(=O)N(C)C [I-230]	≤ 100 nM
CNC(C)(c1ccc(F)c(-c2cc(Nc3ccc(N4CCC(O)CC4)cn3)c3c(=O)[nH]ccc3n2)c1)C(F)(F)F (stereo not drawn) [I-263]	≤ 100 nM
CC1CCCCN1C(=O)c1ccc(-c2cc(Nc3ccc(N4CCC(O)CC4)cn3)c3c(=O)[nH]ccc3n2)c(F)c1 (stereo not drawn) [I-130]	≤ 100 nM
COc1cc(-c2cc(Nc3ccc(C4CC4)cn3)c3c(=O)[nH]ccc3n2)c(F)cc1C(=O)N1CCCCC1 [I-198]	100 to 1000 nM
CN1CCN(Cc2ccc(-c3cc(Nc4ccc(N5CCC(O)CC5)cn4)c4c(=O)[nH]ccc4n3)c(F)c2)CC1 [I-180]	≤ 100 nM
COc1cc(-c2cc(Nc3ccc(N4CCNCC4)cn3)c3c(=O)[nH]ccc3n2)c(F)cc1NC(=O)C1CCCCC1 [I-208]	100 to 1000 nM

###

Biological target: HPK1 (Homo sapiens)
ASSAY_METRIC: IC50

MOLECULE	MEAS_VALUE
O=c1[nH]ccc2nc(-c3cc(CN4CC5(CCCO5)C4)ccc3F)cc(Nc3ccc(N4CCC(O)CC4)cn3)c12 [I-255]	> 1000 nM
CC(C)c1cc(Nc2ccc(N3CCOCC3)cn2)c2c(=O)[nH]ccc2n1 [I-22]	≤ 100 nM
O=C(c1ccc(-c2cc(Nc3ccc(N4CCC(O)CC4)cn3)c3c(=O)[nH]ccc3n2)c(F)c1)N1CCNCC1 [I-119]	100 to 1000 nM
COC1CCN(c2ccc(Nc3cc(-c4ccc(NC(=O)C5CCCCC5)cc4F)nc4cc[nH]c(=O)c34)nc2)CC1 [I-204]	≤ 100 nM
CC(C)(C)c1ccc(F)c(-c2cc(Nc3ccc(N4CCC(O)CC4)cn3)c3c(=O)[nH]ccc3n2)c1 [I-96]	100 to 1000 nM
COC1CCCN(C(=O)c2ccc(-c3cc(Nc4ccc(N5CCC(O)CC5)cn4)c4c(=O)[nH]ccc4n3)c(F)c2)C1 (stereo not shown) [I-133]	≤ 100 nM
O=C(c1ccc(F)c(-c2cc(Nc3ccc(N4CCC(O)CC4)cn3)c3c(=O)[nH]ccc3n2)c1)N1CCC1 [I-95]	100 to 1000 nM
O=C(c1ccc(-c2cc(Nc3ccc(N4CCC(O)CC4)cn3)c3c(=O)[nH]ccc3n2)c(F)c1)N1CC2CCC1C2 (stereo not shown) [I-137]	≤ 100 nM
CCNC(=O)c1ccc(Nc2nc(-c3c(F)cccc3F)cc3cc[nH]c(=O)c23)cc1 [I-7]	100 to 1000 nM
CC(O)c1cc(Nc2ccc(N3CCC(O)CC3)cn2)c2c(=O)[nH]ccc2n1 (stereo not shown) [I-37]	100 to 1000 nM
O=C(c1ccc(F)c(-c2cc(Nc3ccc(N4CCC(O)CC4)cn3)c3c(=O)[nH]ccc3n2)c1)N1CCCC1 [I-93]	≤ 100 nM
O=C(Nc1ccc(-c2cc(Nc3ccc(N4C[C@H]5CC[C@@H](C4)O5)cn3)c3c(=O)[nH]ccc3n2)c(F)c1)C1CCCCC1 [I-173]	100 to 1000 nM
O=c1[nH]cnc2cc(-c3c(F)cccc3F)nc(Nc3ccc(N4CCC(O)CC4)cn3)c12 [I-13]	100 to 1000 nM
O=c1[nH]ccc2nc(N3CCC4(CCCN4)CC3)cc(Nc3ccc(N4CCC(O)CC4)cn3)c12 [I-236]	100 to 1000 nM
O=C(C1CC1)N1CCC2(CCN(c3cc(Nc4ccc(N5CCC(O)CC5)cn4)c4c(=O)[nH]ccc4n3)CC2)C1 [I-233]	≤ 100 nM
CC(C)c1cc(Nc2ccc(N3CCC(O)CC3)cn2)c2c(=O)[nH]cnc2n1 [I-59]	100 to 1000 nM
CC(O)(c1cc(Nc2ccc(N3CCC(O)CC3)cn2)c2c(=O)[nH]ccc2n1)C(F)(F)F (stereo not shown) [I-77]	100 to 1000 nM
COc1cc(-c2cc(Nc3ccc(N4[C@H](C)COC[C@H]4C)cn3)c3c(=O)[nH]ccc3n2)c(F)cc1C(=O)N1CCCCC1 [I-190]	100 to 1000 nM
O=C(c1ccc(-c2cc(Nc3ccc(N4CCOCC4)cn3)c3c(=O)[nH]ccc3n2)c(F)c1)N1CCCCC1 [I-155]	> 1000 nM
O=c1[nH]cc(Br)c2nc(-c3c(F)cccc3F)cc(Nc3ccc(N4CCC(O)CC4)cn3)c12 [I-5]	100 to 1000 nM
COc1cc(-c2cc(Nc3ccc(N4CCOCC4)cn3)c3c(=O)[nH]ccc3n2)c(F)cc1C(=O)N1CCCCC1 [I-164]	≤ 100 nM
O=c1[nH]ccc2nc(-c3cc4[nH]ccc4cc3F)cc(Nc3ccc(N4CCC(O)CC4)cn3)c12 [I-118]	100 to 1000 nM
O=c1[nH]ccc2nc(N3CC[C@@H](O)C3)cc(Nc3ccc(N4CCC(O)CC4)cn3)c12 [I-87]	100 to 1000 nM
Cc1ccc(F)c(-c2cc(Nc3ccc(N4CCC(O)CC4)cn3)c3c(=O)[nH]ccc3n2)c1 [I-4I]	> 1000 nM
COc1cc(-c2cc(Nc3ccc(N4CCC(O)CC4)cn3)c3c(=O)[nH]ccc3n2)c(F)cc1C(=O)N1CCCCC1 [I-112]	> 1000 nM
Cc1c[nH]nc1-c1cc(Nc2ccc(N3CCC(O)CC3)cn2)c2c(=O)[nH]ccc2n1 [I-283]	≤ 100 nM
CC(C)(C#N)c1ccc(F)c(-c2cc(Nc3ccc(N4CCC(O)CC4)cn3)c3c(=O)[nH]ccc3n2)c1 [I-104]	> 1000 nM
O=c1[nH]ccc2nc(C3CCC3)cc(Nc3ccc(N4CCC(O)CC4)cn3)c12 [I-26]	> 1000 nM
CCC(CC)c1cc(Nc2ccc(N3CCC(O)CC3)cn2)c2c(=O)[nH]ccc2n1 [I-32]	100 to 1000 nM
CC(C)c1ccc(F)c(-c2cc(Nc3ccc(N4[C@@H](C)COC[C@@H]4C)cn3)c3c(=O)[nH]ccc3n2)c1 [I-129]	100 to 1000 nM
NC(=O)c1ccc(-c2cc(Nc3ccc(N4CCC(O)CC4)cn3)c3c(=O)[nH]ccc3n2)c(F)c1 [I-72]	100 to 1000 nM

###

Biological target: HPK1 (Homo sapiens)
pIC50: −log10 of the molar value.

COMPOUND	pIC50
CCC1(C(=O)N(C)c2ccc(-c3cc(Nc4ccc(N5CCNCC5)cn4)c4c(=O)[nH]ccc4n3)c(F)c2)CCC1	≥ 7.00
N#CC1(c2ccc(F)c(-c3cc(Nc4ccc(N5CCC(O)CC5)cn4)c4c(=O)[nH]ccc4n3)c2)CC1	< 6.00
CC(C)Oc1ccc(F)c(-c2cc(Nc3ccc(N4CCC(O)CC4)cn3)c3c(=O)[nH]ccc3n2)c1	6.00 to 7.00
O=C(c1ccc(-c2cc(Nc3ccc(N4CCC(O)CC4)cn3)c3c(=O)[nH]ccc3n2)c(F)c1)N1CCCCC1CO (centres unmarked)	< 6.00
CCNC(=O)c1ccc(Nc2cc(C(C)C)nc3cc[nH]c(=O)c23)cc1	6.00 to 7.00
O=C(Nc1ccc(-c2cc(Nc3ccc(N4CCC(O)CC4)cn3)c3c(=O)[nH]ccc3n2)c(F)c1)C1CC1	≥ 7.00
CN(C(=O)C1CC1)c1ccc(-c2cc(Nc3ccc(N4CCC(O)CC4)cn3)c3c(=O)[nH]ccc3n2)c(F)c1	≥ 7.00
O=C(c1ccc(-c2cc(Nc3ccc(N4CCC(O)CC4)cn3)c3c(=O)[nH]ccc3n2)c(F)c1)N1CCCCC1	6.00 to 7.00
